# SYSTEM TESTED: MNK2a (Homo sapiens)
# Sequence (Q9HBH9 whole entry): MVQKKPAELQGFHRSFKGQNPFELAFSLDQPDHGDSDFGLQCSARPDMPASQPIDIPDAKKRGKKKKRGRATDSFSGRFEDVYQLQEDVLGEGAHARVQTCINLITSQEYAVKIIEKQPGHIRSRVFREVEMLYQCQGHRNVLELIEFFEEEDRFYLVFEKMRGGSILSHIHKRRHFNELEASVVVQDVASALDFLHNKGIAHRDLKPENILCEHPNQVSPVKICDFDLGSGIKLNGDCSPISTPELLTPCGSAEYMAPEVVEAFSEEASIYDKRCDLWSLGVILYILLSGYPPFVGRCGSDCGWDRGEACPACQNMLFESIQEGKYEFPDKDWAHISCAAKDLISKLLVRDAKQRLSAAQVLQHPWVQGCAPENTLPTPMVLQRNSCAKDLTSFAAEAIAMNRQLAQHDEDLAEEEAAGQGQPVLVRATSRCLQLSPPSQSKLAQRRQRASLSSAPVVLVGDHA
# ASSAY DETAILS: MNK2a in vitro kinase assay (assay 1), ADP-Glo
# PARTICULARS: preactivated GST-MNK2a, 20 μM ATP, read-out: MNK2 IC50
METRIC NAME: pIC50
The scale used: pIC50 is minus the common logarithm of the concentration in molar units.

Recorded results for 3 compounds are shown here.
What measured pIC50 is associated with Cc1cc(N=S(C)(=O)C2CCOCC2)cc2ncnc(Nc3ccc(F)cc3O[C@H]3CCOC3)c12 (stereo partly shown) on MNK2a (Homo sapiens)?
8.30

What measured pIC50 is associated with CO[C@H]1CC[C@H](Oc2ncccc2Nc2ncnc3cc(N=S(C)(C)=O)cc(C)c23)CC1 on MNK2a (Homo sapiens)?
8.52

What measured pIC50 is associated with Cc1cc(N=S2(=O)CCCC2)cc2ncnc(Nc3ccc(F)cc3O[C@@H]3CO[C@H]4[C@@H]3OC[C@@H]4O)c12 on MNK2a (Homo sapiens)?
9.00

Proceed to the following item.
What measured pIC50 is associated with Cc1cc(N=S(C)(C)=O)cc2ncnc(Nc3ccc(F)cc3OC3COCCOC3)c12 on MNK2a (Homo sapiens)?
8.52
